Value source: the Human Domainome abundance scans (Beltran et al. 2025)

B1: POU domain, class 3, transcription factor 2, residues 356 to 411; numbered along this chain, P20265 (parent)
chain: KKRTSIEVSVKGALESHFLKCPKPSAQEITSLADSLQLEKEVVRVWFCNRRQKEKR

variants of: B1; test: abundance fitness (aPCA) (normalised: wild type 0, dead -1); higher = more abundant; growth selection in yeast, the domain comes from the species named; details: Homo sapiens
Class rule met: abundance fitness at least -0.4. Class rule not met: abundance fitness below -0.4.

- mutationName: "D34P"
  assignedLabel: "rule not met"
- mutationName: "K55L"
  assignedLabel: "rule met"
- mutationName: "K55M"
  assignedLabel: "rule met"
- mutationName: "D34Q"
  assignedLabel: "rule met"
- mutationName: "L36N"
  assignedLabel: "rule not met"
- mutationName: "K40R"
  assignedLabel: "rule met"
- mutationName: "Q37N"
  assignedLabel: "rule met"
- mutationName: "R44I"
  assignedLabel: "rule met"
- mutationName: "V10H"
  assignedLabel: "rule met"
- mutationName: "E7Y"
  assignedLabel: "rule met"
- mutationName: "S5D"
  assignedLabel: "rule met"
- mutationName: "T4F"
  assignedLabel: "rule met"
- mutationName: "R3H"
  assignedLabel: "rule met"
- mutationName: "N49E"
  assignedLabel: "rule met"
- mutationName: "Q27H"
  assignedLabel: "rule met"
- mutationName: "L38N"
  assignedLabel: "rule not met"
- mutationName: "L36Q"
  assignedLabel: "rule not met"
- mutationName: "V42I"
  assignedLabel: "rule met"
- mutationName: "W46C"
  assignedLabel: "rule not met"
- mutationName: "R51V"
  assignedLabel: "rule met"
- mutationName: "F47N"
  assignedLabel: "rule not met"
- mutationName: "V43K"
  assignedLabel: "rule not met"
